- test system: T1, human ROR2 expressed on the cell surface (human, UniProt Q01974 34-943)
- T1 construct: Endogenous ROR2 of human tumour cell lines; also called cell surface ROR2; ROR2 on tumour cell lines
- T1 sequence (Q01974 34-943 limits assumed): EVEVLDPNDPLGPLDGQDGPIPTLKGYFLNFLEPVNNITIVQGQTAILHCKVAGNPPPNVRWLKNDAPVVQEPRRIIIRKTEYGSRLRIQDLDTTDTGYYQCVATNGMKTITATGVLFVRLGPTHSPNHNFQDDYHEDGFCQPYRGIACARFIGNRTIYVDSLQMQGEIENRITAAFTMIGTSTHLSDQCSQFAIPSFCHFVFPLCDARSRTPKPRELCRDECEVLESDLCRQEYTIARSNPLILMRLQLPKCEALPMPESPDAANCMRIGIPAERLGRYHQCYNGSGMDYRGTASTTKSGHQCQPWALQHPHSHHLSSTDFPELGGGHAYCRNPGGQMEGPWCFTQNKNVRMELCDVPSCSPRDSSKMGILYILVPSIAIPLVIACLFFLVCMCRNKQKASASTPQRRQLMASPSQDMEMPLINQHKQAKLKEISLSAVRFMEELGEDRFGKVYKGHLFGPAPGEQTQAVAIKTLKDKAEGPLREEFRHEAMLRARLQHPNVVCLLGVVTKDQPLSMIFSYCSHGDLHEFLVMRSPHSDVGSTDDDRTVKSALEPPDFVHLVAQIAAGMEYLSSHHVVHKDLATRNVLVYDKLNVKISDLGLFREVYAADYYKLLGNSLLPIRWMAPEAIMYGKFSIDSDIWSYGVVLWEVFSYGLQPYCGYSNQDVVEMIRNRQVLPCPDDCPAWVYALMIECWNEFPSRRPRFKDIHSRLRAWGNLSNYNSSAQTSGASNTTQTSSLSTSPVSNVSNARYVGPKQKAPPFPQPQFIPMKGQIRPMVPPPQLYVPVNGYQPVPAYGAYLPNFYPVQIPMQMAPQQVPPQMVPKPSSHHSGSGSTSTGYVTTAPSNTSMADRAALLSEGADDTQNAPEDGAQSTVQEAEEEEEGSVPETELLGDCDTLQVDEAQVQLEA
- experimental details: flow cytometry, SKMEL-5 cells (melanoma)
- Parameters: unit not given here
Attribute: binding intensity
Reply with the value as a number alone.

Observe how each entry below is paired with its result.
[
  {
    "binder": "ROR2-240 full length human IgG1 antibody (antibody, V domains shown, also called clone #240 IgG1) VH: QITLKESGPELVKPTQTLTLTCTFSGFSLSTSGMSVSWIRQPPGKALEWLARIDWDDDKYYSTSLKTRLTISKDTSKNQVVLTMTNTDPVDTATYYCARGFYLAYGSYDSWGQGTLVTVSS VL: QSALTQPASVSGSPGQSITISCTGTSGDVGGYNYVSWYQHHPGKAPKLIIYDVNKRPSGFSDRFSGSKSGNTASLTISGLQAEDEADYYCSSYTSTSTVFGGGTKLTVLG",
    "quantity measured": "binding intensity",
    "reading": 1
  },
  {
    "binder": "ROR2-241 full length human IgG1 antibody (antibody, V domains shown) VH: EVQLVQSGAEVKKPGASVKVSCKASGYTFTNYYIHWVRQAPGQGLEWMGIINPTSGRTRYAQRFQGRVTMTRDTSTNTVYMDLSSLRSEDTAMYYCARSGYYWGVNGDQWGQGTLVTVSS VL: SYELTQPLSVSVALGQTARITCGGNNIGSKNVHWYQQKPGQAPVLVIYRDSNRPSGIPERFSGSNSGNTATLTISRAQAGDEADYYCQVWDSSIVVFGGGTKLTVLG",
    "quantity measured": "binding intensity",
    "reading": 5
  },
  {
    "binder": "ROR2-90 full length human IgG1 antibody (antibody, V domains shown, also called clone #90; antibody #90) VH: EVQLVESGPGLVKPSQTLSLTCTVSGGSISSGGYYWSWIRQHPGKGLEWIGYIYYSGSTYYNPSLKSRVTISVDTSKNQFSLKLSSVTAADTAMYYCARGGLYWTYSQDVWGQGTLVTVSS VL: QPVLTQPPSASGTPGQRVTISCSGSSSNIGSDYVSWYQQLPGTAPKLLIYRNDQRPSGVPDRFSGSKSGTSASLAISGLRSEDEADYYCVAWDDSLSGYVFGSGTKVTVLG",
    "quantity measured": "binding intensity",
    "reading": 8
  }
]

So what's the measured binding intensity for this one? ROR2-23 full length human IgG1 antibody (antibody, V domains shown, The light chain of clone 023 is labelled kappa; also called clone #23; clone #023 IgG1) VH: EVQLVQSGAEVKKPGESLKISCQGSGYRFSKYWIGWVRQMPGKGLEWMGIIYPGDSDTRYSPSFQGQVTISADKSISTAYLQWSSLKASDTAMYYCARSFSSFIYDYWGQGTLVTVSS VL: ETTLTQSPGTLSVSPGERATLSCRASQSVSSNLAWYQQKRGQAPRLLIYGASTRATGIPVRFSGSGSGTEFTLTISRLEPEDFAVYYCQQYGRSPLTFGGGTKVDIKR 7
